protocol-summary: Oral bioavailability in cynomolgus monkey at 1 mg/kg administered as single dose
Assay type: ADME, organism-based, Macaca fascicularis
applied-conditions: in vivo
quantity: bioavailability (%)
Express it in %; write the number only.

smiles-repr: CC(C)(C)[C@H]1C(O)=C(C2=NS(=O)(=O)c3c(CNS(C)(=O)=O)cccc32)C(=O)N1Cc1ccc(F)c(Cl)c1
measurement-unit: %
bioavailability: 1

# input Give bioavailability for CN(Cc1cccc2c1S(=O)(=O)N=C2C1=C(O)[C@H](C(C)(C)C)N(Cc2ccc(F)c(Cl)c2)C1=O)S(C)(=O)=O
# output 4

---

protocol-summary: Cytotoxicity against human Huh7/C24 cells after 72 hrs
Type: cell-based, Huh-7
In this section, each of the compounds is paired with its reported CC50 at 72 h.

Record excerpt, results attached:
smiles-repr: CN(Cc1cccc2c1S(=O)(=O)N=C2C1=C(O)[C@H](C(C)(C)C)N(Cc2ccc(F)c(Cl)c2)C1=O)S(C)(=O)=O
reported-value: > 33 µM
--
smiles-repr: CC(C)(C)[C@H]1C(O)=C(C2=NS(=O)(=O)c3c(OCC(N)=O)cccc32)C(=O)N1Cc1ccc(F)c(Cl)c1
reported-value: > 33 µM

Shift focus to the following entry.
# input Give the measured CC50 at 72 h for CN(Cc1cccc2c1S(=O)(=O)C=C2C1=C(O)[C@H](C(C)(C)C)N(CCC(C)(C)C)C1=O)S(C)(=O)=O
# output > 33 µM

---

protocol-summary: Plasma concentration in cynomolgus monkey at 1 mg/kg, po administered as single dose after 12 hrs
Format: ADME, organism-based, Macaca fascicularis
Design: dose 1 mg/kg, route oral
quantity: concentration at 12 h

smiles-repr: CC(C)(C)CCN1C(=O)C(C2=NS(=O)(=O)c3ccccc32)=C(O)[C@@H]1C(C)(C)C
concentration at 12 h: 5 ng/mL

# input Please give the documented concentration at 12 h of CC(C)(C)[C@H]1C(O)=C(C2=NS(=O)(=O)c3c(CNS(C)(=O)=O)cccc32)C(=O)N1Cc1ccc(F)c(Cl)c1
# output 0.5 ng/mL

# input Specify reported concentration at 12 h for the compound shown: CN(Cc1cccc2c1S(=O)(=O)N=C2C1=C(O)[C@H](C(C)(C)C)N(Cc2ccc(F)c(Cl)c2)C1=O)S(C)(=O)=O
# output 3.1 ng/mL

---

protocol-summary: Metabolic stability in human liver microsomes assessed as half life
applied-conditions: liver microsomes
quantity: half-life

Guide cases for half-life, answers given:
smiles-repr: CC(C)[C@H]1C(O)=C(C2=NS(=O)(=O)c3ccccc32)C(=O)N1Cc1ccccc1
reported-value: > 1 h

smiles-repr: CN(Cc1cccc2c1S(=O)(=O)N=C2C1=C(O)C(C)(C)N(Cc2ccc(F)c(Cl)c2)C1=O)S(C)(=O)=O
reported-value: > 1 h

smiles-repr: CC(C)(C)CCN1C(=O)C(C2=NS(=O)(=O)c3ccccc32)=C(O)[C@@H]1C(C)(C)C
reported-value: 0.167 h

smiles-repr: CCOc1cccc2c1S(=O)(=O)N=C2C1=C(O)[C@H](C(C)C)N(Cc2ccccc2)C1=O
reported-value: > 1 h

smiles-repr: CC(C)(C)[C@H]1C(O)=C(C2=NS(=O)(=O)c3c(OCC#N)cccc32)C(=O)N1Cc1ccc(F)c(Cl)c1
reported-value: > 1 h

# input Report half-life, nothing else, for this compound: CC(C)(C)CCN1C(=O)C(C2=NS(=O)(=O)c3c(OCC(N)=O)cccc32)=C(O)[C@@H]1C(C)(C)C
# output 0.8 h

# input Determine its reported half-life: CCOc1cccc2c1S(=O)(=O)N=C2C1=C(O)[C@H](C(C)(C)C)N(CCC(C)(C)C)C1=O
# output > 1 h

---

protocol-summary: Apparent permeability from apical to basolateral side in human Caco-2 cells
Assay type: ADME, cell-based
Parameter Papp A→B: see the listing below.
Give the number; ×10⁻⁶ cm/s is assumed, so skip it.

smiles-repr: CC(C)(C)[C@H]1C(O)=C(C2=NS(=O)(=O)c3c(CNS(C)(=O)=O)cccc32)C(=O)N1Cc1ccc(F)c(Cl)c1
Papp A→B, ×10⁻⁶ cm/s: 0.1

smiles-repr: CC(C)(C)CCN1C(=O)C(C2=NS(=O)(=O)c3ccccc32)=C(O)[C@@H]1C(C)(C)C
Papp A→B, ×10⁻⁶ cm/s: 9.9

Field: next molecule
# input Identify measured Papp A→B associated with CN(Cc1cccc2c1S(=O)(=O)N=C2C1=C(O)[C@H](C(C)(C)C)N(Cc2ccc(F)c(Cl)c2)C1=O)S(C)(=O)=O
# output 0.2

---

protocol-summary: Apparent permeability across human Caco-2 cells
quantity: Papp (×10⁻⁶ cm/s)
Quick note: give the figure in ×10⁻⁶ cm/s, leave out the unit.

# input Report Papp, nothing else, for this molecule: CC(C)NCC(O)COc1cccc2ccccc12 (stereo unspecified)
# output 10

These data points were gathered from ChEMBL document CHEMBL1158156.
